Reference for the values: ChEMBL document CHEMBL3414487

- ASSAY SUMMARY: Selectivity index, ratio of IC50 for mouse BALB/3T3 cells to IC50 for human SW707 cells
- Assay type: functional
OBSERVED PROPERTY: Selectivity Index
Just the number, please, no unit attached.

{"columns": ["STRUCTURE NOTATION", "Selectivity Index"],
 "data": [
  ["CC[C@@H](C(=O)[C@@H](C)[C@@H](O)[C@H](C)[C@@H]1O[C@@H]([C@@H](CC)C(=O)OC[C@H]2O[C@@H](n3cc(F)c(=O)[nH]c3=O)C[C@@H]2O)CC[C@@H]1C)[C@H]1O[C@]2(C=C[C@@H](O)[C@]3(CC[C@@](C)([C@H]4CC[C@](O)(CC)[C@H](C)O4)O3)O2)[C@H](C)C[C@@H]1C", 16.22]
]}

IN: Consider the molecule CC[C@@H](C(=O)[C@@H](C)[C@@H](O)[C@H](C)[C@@H]1O[C@@H]([C@@H](CC)C(=O)NCc2cn([C@H]3C[C@H](n4cc(F)c(=O)[nH]c4=O)O[C@@H]3CO)nn2)CC[C@@H]1C)[C@H]1O[C@]2(C=C[C@@H](O)[C@]3(CC[C@@](C)([C@H]4CC[C@](O)(CC)[C@H](C)O4)O3)O2)[C@H](C)C[C@@H]1C and give its measured Selectivity Index.
OUT: 0.85
